tested on: P388 leukemia ip, CD2F1 mice, survival T/C; test: NCI In Vivo Anticancer Drug Screen. Data for tumor model P388 Leukemia (intraperitoneal) in CD2F1 (CDF1) mice; details: endpoint: median survival time; dose: 200.0 mg/kg/injection; schedule: Q01DX005 (ip); vehicle: Klucel (hydroxypropylcellulose) (HPC); higher = longer survival
Inconclusive results and toxic doses are left out.
So I've got a bunch of compounds here, and I need their T/C values.

Below are worked cases with known answers.
Compound: COc1ccc2c(C)cc(N/N=C/c3ccccc3)nc2c1
Measured Parameter: T/C
Measurement: 98 % of control
//
Compound: CCOc1nc(N)c(C(=O)c2ccc(O)c(O)c2)s1
Measured Parameter: T/C
Measurement: 87 % of control
//
Compound: Cn1c(NCCN2CCCCC2)c(C(=O)/C=C/c2ccccc2)c(=O)n(C)c1=O
Measured Parameter: T/C
Measurement: 103 % of control
//
Compound: O=C1c2ccccc2-c2c(NC(=O)C(Cl)Cl)cccc21
Measured Parameter: T/C
Measurement: 86 % of control

Could I get T/C for every one of these entries?
1. O=C1Cc2ccccc2C2(CCCCC2)O1
2. CCOC(=O)/C(C#N)=N/Nc1ccc2cn[nH]c2c1

["100 % of control", "97 % of control"]
